Answer each item with its documented inhibition at 0.1 µM.
# ASSAY_TARGET: FAAH (Rattus norvegicus)
# Construct: Preparation of Rat Brain Membranes Preparations (FAAH Enzyme Solution); from tissue; host or cells: rat cerebrum (brain membrane preparation)
# Sequence (P97612 1-579): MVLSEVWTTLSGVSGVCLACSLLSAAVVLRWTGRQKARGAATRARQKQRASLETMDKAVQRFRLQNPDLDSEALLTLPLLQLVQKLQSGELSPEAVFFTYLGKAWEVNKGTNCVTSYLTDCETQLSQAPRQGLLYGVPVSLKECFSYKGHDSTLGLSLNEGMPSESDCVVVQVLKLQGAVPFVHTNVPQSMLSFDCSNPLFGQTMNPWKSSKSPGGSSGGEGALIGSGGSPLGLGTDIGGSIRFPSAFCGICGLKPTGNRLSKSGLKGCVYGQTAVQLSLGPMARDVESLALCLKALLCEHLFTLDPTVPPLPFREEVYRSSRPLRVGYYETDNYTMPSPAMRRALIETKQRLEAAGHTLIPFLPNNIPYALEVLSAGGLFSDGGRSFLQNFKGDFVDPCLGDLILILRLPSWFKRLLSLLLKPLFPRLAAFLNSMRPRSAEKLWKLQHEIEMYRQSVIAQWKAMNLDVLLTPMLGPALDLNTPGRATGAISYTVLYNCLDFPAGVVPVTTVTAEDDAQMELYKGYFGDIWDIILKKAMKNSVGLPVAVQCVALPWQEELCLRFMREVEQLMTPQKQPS
# MEASUREMENT_NOTES: Determination of FAAH inhibitory activity in rat (rat brain membrane preparations, [3H]-anandamide hydrolysis)
# Assay type: biochemical
# MEASUREMENT_PARAMETERS: rat brain membrane preparations; 100 nM test substance; read-out: FAAH Inhibition, Inhibition Rate at 100 nM
Report the value in % with no unit label.

Lookup: # value lookup — system FAAH (Rattus norvegicus), readout inhibition at 0.1 µM, item CN(C)C(=O)n1c(=O)n(C)c2cnc(CCc3ccc(F)cc3)nc21 [Example 533]
Found: 53

Lookup: Param item: Cn1c(=O)n(C(=O)N2CCCC2)c2cnc(Cc3ccccc3F)nc21 [Example 254]
Found: 98

Lookup: Param item: CCOc1ccc(C2CN(C(=O)n3c(=O)n(C)c4nc(CCOC)ncc43)C2)cc1 [compound 392]
Found: 105

Lookup: Param item: COc1cccc(-c2ncc3c(n2)n(C)c(=O)n3C(=O)N2CC=C(/C=C/c3ccc(F)cc3)CC2)c1 [Example 95]
Found: 101

Lookup: Param item: CCCn1c(=O)n(C(=O)N2CCCC2)c2cnc(-c3ccccc3)nc21 [Example 304]
Found: 100

---

Answer each item with its documented inhibition at 0.1 µM.
# ASSAY_TARGET: FAAH (Rattus norvegicus)
# Construct: Preparation of Rat Brain Membranes Preparations (FAAH Enzyme Solution); from tissue; host or cells: rat cerebrum (brain membrane preparation)
# MEASUREMENT_NOTES: Determination of FAAH inhibitory activity in rat (rat brain membrane preparations, [3H]-anandamide hydrolysis)
# Format: biochemical
# MEASUREMENT_PARAMETERS: rat brain membrane preparations; 100 nM test substance; read-out: FAAH Inhibition, Inhibition Rate at 100 nM
Could you kindly put the unit after your number?

Lookup: Fill in: inhibition at 0.1 µM of CN(C)C(=O)n1c(=O)n(C)c2cnc(CCc3ccc(OC4CCCC4)cc3)nc21 is ___
Found: 96%

Lookup: Param item: Cn1c(=O)n(C(=O)N2CCCC2)c2nc(/C=C/c3ccccc3)ncc21
Found: 94%

Lookup: Param item: CCN(C)C(=O)n1c(=O)n(C)c2nc(C)ncc21
Found: 27%

Lookup: Param item: COc1cccc(-c2ncc3c(n2)n(C)c(=O)n3C(=O)N2CCCC2)c1F
Found: 101%

Lookup: Param item: Cn1c(=O)n(C(=O)N2CCCC2)c2nc(-c3ccncc3)ncc21
Found: 40%

Lookup: Param item: CN(C)C(=O)n1c(=O)n(C)c2cnc(CCc3cccc(F)c3F)nc21
Found: 87%

Lookup: Param item: CCOc1ccc(-c2ncc3c(n2)n(C)c(=O)n3C(=O)N2CCCC2)cc1
Found: 100%

Lookup: Param item: CSc1ccc(-c2ncc3c(n2)n(C)c(=O)n3C(=O)N2CCCC2)cc1
Found: 101%

Lookup: Param item: Cn1c(=O)n(C(=O)N2CCC2)c2nc(-c3ccc(F)cc3)ncc21
Found: 79%

Lookup: Param item: CCN(C)C(=O)n1c(=O)n(C)c2nc(-c3cccnc3)ncc21
Found: 96%

Lookup: Param item: Cc1cccc(N2CCN(C(=O)n3c(=O)n(C)c4nc(-c5ccccc5)ncc43)CC2)c1
Found: 98%

Lookup: Param item: CN(C)C(=O)n1c(=O)n(C)c2cnc(-c3ccc(OC(F)F)cc3)nc21
Found: 82%

Lookup: Param item: COc1cccc(-c2ncc3c(n2)n(C)c(=O)n3C(=O)N2CCOCC2)c1
Found: 76%

Lookup: Param item: CCN(C)C(=O)n1c(=O)n(C)c2nc(-c3cccc(OC)c3)ncc21
Found: 99%

Lookup: Param item: Cn1c(=O)n(C(=O)N2CCC2)c2nc(CCCOc3ccccc3)ncc21
Found: 88%

Lookup: Param item: COCc1ncc2c(n1)n(C)c(=O)n2C(=O)N1CC(c2cccc(C)c2)C1
Found: 69%

Lookup: Param item: CCOc1cccc(-c2ncc3c(n2)n(C(=O)N2CCC2)c(=O)n3C)c1
Found: 99%

Lookup: Param item: COc1cccc(-c2ncc3c(n2)n(C)c(=O)n3C(=O)N2CCN(c3ccc(F)cc3)CC2)c1
Found: 99%
